Target: Carboxypeptidase B (Homo sapiens, UniProt P15086)
Sequence (P15086 whole entry): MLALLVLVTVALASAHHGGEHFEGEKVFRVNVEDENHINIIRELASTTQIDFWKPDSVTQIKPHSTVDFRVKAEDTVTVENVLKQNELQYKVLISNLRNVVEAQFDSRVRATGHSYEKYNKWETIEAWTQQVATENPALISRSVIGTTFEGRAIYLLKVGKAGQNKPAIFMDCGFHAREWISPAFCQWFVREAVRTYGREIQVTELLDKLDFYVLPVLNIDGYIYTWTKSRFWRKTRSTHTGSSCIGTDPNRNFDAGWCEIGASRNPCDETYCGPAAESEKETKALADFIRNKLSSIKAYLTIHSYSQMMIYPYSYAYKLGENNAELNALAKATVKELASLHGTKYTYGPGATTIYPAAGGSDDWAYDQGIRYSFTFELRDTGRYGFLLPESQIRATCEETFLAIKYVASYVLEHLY
Assay: Inhibition of human recombinant carboxypeptidase B expressed in Pichia pastoris system
The compounds listed here are annotated with their pKi.
Formally, pKi is defined as -log10 of the concentration c, with c in mol/L.

Below are worked cases with known answers.
[[record]]
compound = "O=C(O)c1cccc(-n2nnnc2SCC(=O)c2ccccc2F)c1"
tested_target = "Carboxypeptidase B (Homo sapiens, UniProt P15086)"
experimental_endpoint = "pKi"
observed = 4.47

[[record]]
compound = "Cc1cccc(CCc2nnc(SCC(=O)O)n2Cc2ccccc2)c1"
tested_target = "Carboxypeptidase B (Homo sapiens, UniProt P15086)"
experimental_endpoint = "pKi"
observed = 3.71

[[record]]
compound = "O=C(CSc1nnc(-c2ccccc2O)o1)c1ccc(Cl)cc1"
tested_target = "Carboxypeptidase B (Homo sapiens, UniProt P15086)"
experimental_endpoint = "pKi"
observed = 5.12


Which value of pKi has been reported for N=C(N)NCCSC(CC(=O)O)C(=O)O (racemic) in the records?
5.96

Which value of pKi has been reported for `COC(=O)CSc1nnc(-c2ccccc2O)n1Cc1ccccc1` in the records?
5.31

Which value of pKi has been reported for O=S(=O)(NCc1ccccc1)c1ccc(S(=O)(=O)N(Cc2cccs2)CC2CCCO2)cc1 (stereo unspecified) in the records?
4.64

Which value of pKi has been reported for `COc1ccccc1-c1nnc(SCC(=O)OC(C)C)n1Cc1ccccc1` in the records?
5.13

Which value of pKi has been reported for O=C(O)CC(Cc1ccccc1)C(=O)O (racemic) in the records?
5.00

Which value of pKi has been reported for `COc1cccc(CSc2nnc(Cc3csc(Nc4cccc(Cl)c4)n3)o2)c1` in the records?
5.92

Which value of pKi has been reported for `COc1ccccc1Cn1c(SCC(=O)N2CCC(C)CC2)nnc1-c1ccncc1` in the records?
4.68
